These entries and their values trace back to PubChem BioAssay (Tox21).

Molecular target: Peroxisome proliferator-activated receptor delta (Homo sapiens) (UniProt Q03181)
Sequence (Q03181 whole entry, looked up): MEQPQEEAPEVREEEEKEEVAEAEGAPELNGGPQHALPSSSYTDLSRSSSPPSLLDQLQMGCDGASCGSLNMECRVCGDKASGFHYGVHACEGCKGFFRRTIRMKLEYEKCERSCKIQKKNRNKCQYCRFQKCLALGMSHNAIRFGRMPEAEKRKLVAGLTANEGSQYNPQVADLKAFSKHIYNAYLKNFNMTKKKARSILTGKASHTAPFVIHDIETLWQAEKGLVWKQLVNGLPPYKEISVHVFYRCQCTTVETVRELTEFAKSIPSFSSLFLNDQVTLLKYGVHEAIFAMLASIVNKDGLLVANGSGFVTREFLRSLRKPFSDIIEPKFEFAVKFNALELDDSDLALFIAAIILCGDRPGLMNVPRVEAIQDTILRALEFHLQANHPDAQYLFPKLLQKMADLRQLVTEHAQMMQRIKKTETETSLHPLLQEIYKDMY
Assay: qHTS assay to identify small molecule agonists of the peroxisome proliferator-activated receptor delta (PPARd) signaling pathway (AID 743212);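 note: HEK293H cells with PPARd UAS beta-lactamase reporter GeneBLAzer system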
Settings: HEK293H PPARd-UAS-bla, beta-lactamase FRET ratio, 17 h; series mostly up to 62.6 µM
Inconclusive results are not listed. The source made the active and inactive calls. Calls come from the whole dose curve.
quantity: outcome

Known outcome results, listed for orientation:
O=C(O)CCCC[C@@H]1SC[C@@H]2NC(=O)N[C@@H]21    inactive
CCc1cccc(C)c1N    inactive
CC1=C(C)S(=O)(=O)CCS1(=O)=O    inactive
CCCC(C)=O    inactive
CCCCCCCCCCCCc1ccccc1    inactive

Specify measured outcome for O=S1(=O)CC=CC1 .
inactive

Specify measured outcome for c1ccc2c(c1)ccc1ccccc12 .
inactive

Specify measured outcome for O=C(Oc1ccccc1)c1ccccc1 .
inactive

Specify measured outcome for Nc1ccccc1[N+](=O)[O-] .
inactive

Specify measured outcome for O=C1CCC(N2C(=O)c3ccccc3C2=O)C(=O)N1 (stereo not given) .
inactive

Specify measured outcome for CCOC(=O)NNc1nncc2ccccc12 .
inactive

Specify measured outcome for CCCCC(CC)COC(=O)CCCCC(=O)OCC(CC)CCCC (stereo not given) .
inactive

Specify measured outcome for CC(=O)CC(=O)Nc1ccccc1 .
inactive

Specify measured outcome for c1c[nH]cn1 .
inactive

Specify measured outcome for C#CCN(C)Cc1ccccc1 .
inactive
